Could you please report measured EC50 for the items listed next?
Test system: HIV-IIIb
Experiment: Test A: Antiviral Assays in MT4 Cells
Type: cell-based
Conditions: Human immunodeficiency virus 1, IIIB, MT4, 120 h, MT-4 cells infected with HIV-IIIb (0.004 m.o.i.), 5 days of incubation, CellTiter-Glo chemiluminescence readout; read-out: EC50
Numbers only, in nM.

Field: example entries. Status: answers known.
COMPOUND	TARGET OR SYSTEM	ATTRIBUTE MEASURED	REPORTED MEASUREMENT
Cc1c(C(OC(C)(C)C)C(=O)O)c(-c2ccc(Cl)cc2)c2ccccc2c1CN1CCOCC1 (stereo not shown) [Compound 134]	HIV-IIIb	EC50	150
Cc1cc2ccc(C#CC(C)(C)O)cc2c(-c2ccc(Cl)cc2)c1[C@H](OC(C)(C)C)C(=O)O [Compound 99]	HIV-IIIb	EC50	107
Cc1cc2ccc(C#CC3CC3)cc2c(-c2ccc(Cl)cc2)c1C(OC(C)(C)C)C(=O)O (stereo not shown) [Compound 75]	HIV-IIIb	EC50	980
C=Cc1cc2ccccc2c(-c2ccc(Cl)cc2)c1[C@H](OC(C)(C)C)C(=O)O [Compound 29A]	HIV-IIIb	EC50	130
CCc1ccc2cc(C)c(C(OC(C)(C)C)C(=O)O)c(-c3ccc(Cl)cc3)c2c1 (stereo not shown) [Compound 93]	HIV-IIIb	EC50	86

// input: 2 compounds below; output: EC50 for each
1. Cc1cc2cc(-c3ccccn3)ccc2c(-c2ccc(Cl)cc2)c1[C@H](OC(C)(C)C)C(=O)O [Compound 63]
2. Cc1cc2c(F)cccc2c(-c2ccc(Cl)cc2)c1C(OC(C)(C)C)C(=O)O (stereo not shown) [Compound 46]

result:
1. 99
2. 1400

Data credit: patent US9102614B2
